# System: Bacillus subtilis
# testDetails: Antimicrobial activity against Bacillus subtilis DSM 347 after 22 hrs by resazurin dye based spectrophotometry
# Assay type: functional
# conditionDescription: DSM 347, 22 h
measurementLabel: MIC
Put your answer as a value accompanied by its unit after it.

Solved entries (count: 2):
smilesCode	testedTarget	measValue
Cc1sc2cc1C1=C(CCC1)c1cc(sc1C)C(=O)[C@H]1CCCN1C(=O)[C@H](CC(C)C)NC(=O)[C@H](CCCNC(=N)N)NC(=O)[C@H](C(C)C)NC(=O)[C@@H]1CCCN1C(=O)[C@@H](Cc1ccccc1)NC(=O)[C@H](CC(C)C)NC(=O)[C@H](CCCNC(=N)N)NC(=O)[C@H](C(C)C)NC2=O	Bacillus subtilis	3 µM
CC(C)C[C@@H]1NC(=O)C2=CC3=C4CCCC4=C4C=C(S[C@]4(C)[C@@]3(C)S2)C(=O)[C@H]2CCCN2C(=O)[C@H](C(C)C)NC(=O)[C@H](CCCCN)NC(=O)[C@H](CC(C)C)NC(=O)[C@H](CCCCN)NC(=O)[C@@H]2CCCN2C(=O)[C@@H](Cc2ccccc2)NC(=O)[C@H](CCCCN)NC(=O)[C@H](C(C)C)NC(=O)[C@H](CCCCN)NC1=O	Bacillus subtilis	10 µM

Consider "CC(C)[C@@H]1NC(=O)C2=CC3=C4CCCC4=C4C=C(S[C@]4(C)[C@@]3(C)S2)C(=O)[C@H]2CCCN2C(=O)[C@H](Cc2ccc(O)cc2)NC(=O)[C@H](CCCN)NC(=O)[C@H](C(C)C)NC(=O)[C@@H]2CCCN2C(=O)[C@@H](Cc2ccccc2)NC(=O)[C@H](Cc2ccc(O)cc2)NC(=O)[C@H](CCCN)NC1=O" . Its measured MIC is 3 µM

Consider "Cc1sc2cc1C1=C(CCC1)c1cc(sc1C)C(=O)[C@H]1CCCN1C(=O)[C@H]([C@@H](C)O)NC(=O)[C@H](C13CC4CC(CC(C4)C1)C3)NC(=O)[C@H](CCCN)NC(=O)[C@@H]1CCCN1C(=O)[C@@H](Cc1ccccc1)NC(=O)[C@H](CCCN)NC(=O)[C@H](C13CC4CC(CC(C4)C1)C3)NC(=O)[C@H](CCCN)NC2=O" . Its measured MIC is 2 µM

Consider "CC(C)C[C@@H]1NC(=O)[C@H](CCCN)NC(=O)[C@H](CCCN)NC(=O)C2=CC3=C4CCCC4=C4C=C(S[C@]4(C)[C@@]3(C)S2)C(=O)[C@H]2CCCN2C(=O)[C@H](CC(C)C)NC(=O)[C@H](CCCN)NC(=O)[C@H](C(C)C)NC(=O)[C@@H]2CCCN2C(=O)[C@@H](Cc2ccccc2)NC1=O" . Its measured MIC is 3 µM

Consider "Cc1sc2cc1C1=C(CCC1)c1cc(sc1C)C(=O)[C@H]1CCCN1C(=O)[C@H](Cc1ccc(O)cc1)NC(=O)[C@H](CCCN)NC(=O)[C@H](C(C)C)NC(=O)[C@@H]1CCCN1C(=O)[C@@H](Cc1ccccc1)NC(=O)[C@H](Cc1ccc(O)cc1)NC(=O)[C@H](CCCN)NC(=O)[C@H](C(C)C)NC2=O" . Its measured MIC is 4 µM

Consider "CC(C)[C@@H]1NC(=O)C2=CC3=C4CCCC4=C4C=C(S[C@]4(C)[C@@]3(C)S2)C(=O)[C@H]2CCCN2C(=O)[C@H](C(C)C)NC(=O)[C@H](CCCN)NC(=O)[C@H]([C@H](O)C(C)C)NC(=O)[C@@H]2CCCN2C(=O)[C@@H](Cc2ccccc2)NC(=O)[C@H](C(C)C)NC(=O)[C@H](CCCN)NC1=O" . Its measured MIC is 9 µM

Consider "Cc1sc2cc1C1=C(CCC1)c1cc(sc1C)C(=O)[C@H]1CCCN1C(=O)[C@H](CC(C)C)NC(=O)[C@H](CCCCN)NC(=O)[C@H](C(C)C)NC(=O)[C@H](CCCCN)N(C)C(=O)[C@@H](Cc1ccccc1)NC(=O)[C@H](CC(C)C)NC(=O)[C@H](CCCCN)NC(=O)[C@H](C(C)C)NC2=O" . Its measured MIC is 3 µM

Consider "CC(C)C[C@@H]1NC(=O)[C@H](CCCCN)NC(=O)[C@H](C(C)C)NC(=O)C2=CC3=C4CCCC4=C4C=C(S[C@]4(C)[C@@]3(C)S2)C(=O)[C@H]2CCCN2C(=O)[C@H](C(C)C)NC(=O)[C@H](CCCCN)NC(=O)[C@H](C(C)C)NC(=O)[C@H](CC(C)C)NC(=O)[C@@H](CCCCN)NC(=O)[C@@H]2CCCN2C(=O)[C@@H](Cc2ccccc2)NC(=O)[C@H](C(C)C)NC(=O)[C@H](CCCCN)NC1=O" . Its measured MIC is 2 µM

Consider "Cc1sc2cc1C1=C(CCC1)c1cc(sc1C)C(=O)[C@H]1CCCN1C(=O)[C@H](C)NC(=O)[C@H](CCCN)NC(=O)[C@H](C(C)C)NC(=O)[C@@H]1CCCN1C(=O)[C@@H](Cc1ccccc1)NC(=O)[C@H](CC(C)C)NC(=O)[C@H](CCCN)NC(=O)[C@H](C)NC2=O" . Its measured MIC is 7 µM

Consider "Cc1sc2cc1C1=C(CCC1)c1cc(sc1C)C(=O)[C@H]1CCCN1C(=O)[C@H]([C@H](O)C(C)C)NC(=O)[C@H](CCCN)NC(=O)[C@H](C(C)C)NC(=O)[C@@H]1CCCN1C(=O)[C@@H](Cc1ccccc1)NC(=O)[C@H](C(C)C)NC(=O)[C@H](CCCN)NC(=O)[C@H](C(C)C)NC2=O" . Its measured MIC is 2 µM

Consider "CC[C@H](C)[C@@H]1NC(=O)C2=CC3=C4CCCC4=C4C=C(S[C@]4(C)[C@@]3(C)S2)C(=O)[C@H]2CCCN2C(=O)[C@H]([C@@H](C)CC)NC(=O)[C@H](CCCN)NC(=O)[C@H](CC(C)C)NC(=O)[C@H](CC(C)C)N(C)C(=O)[C@@H](Cc2ccccc2)NC(=O)[C@H]([C@@H](C)CC)NC(=O)[C@H](CCCN)NC1=O" . Its measured MIC is 3 µM

Consider "C[C@@H](O)[C@@H]1NC(=O)[C@H](C23CC4CC(CC(C4)C2)C3)NC(=O)[C@H](CCCN)NC(=O)[C@@H]2CCCN2C(=O)[C@@H](Cc2ccccc2)NC(=O)[C@H](CCCN)NC(=O)[C@H](C23CC4CC(CC(C4)C2)C3)NC(=O)[C@H](CCCN)NC(=O)C2=CC3=C4CCCC4=C4C=C(S[C@]4(C)[C@@]3(C)S2)C(=O)[C@H]2CCCN2C1=O" . Its measured MIC is 2 µM
